Ref: paper PMC7782793

# target-system: HDAC3/NCoR2 (Homo sapiens)
# Construct: HDAC3/NCoR2 (full length, C-terminal His tag, NCoR2 N-terminal GST tag)
# Sequence (O15379 whole entry): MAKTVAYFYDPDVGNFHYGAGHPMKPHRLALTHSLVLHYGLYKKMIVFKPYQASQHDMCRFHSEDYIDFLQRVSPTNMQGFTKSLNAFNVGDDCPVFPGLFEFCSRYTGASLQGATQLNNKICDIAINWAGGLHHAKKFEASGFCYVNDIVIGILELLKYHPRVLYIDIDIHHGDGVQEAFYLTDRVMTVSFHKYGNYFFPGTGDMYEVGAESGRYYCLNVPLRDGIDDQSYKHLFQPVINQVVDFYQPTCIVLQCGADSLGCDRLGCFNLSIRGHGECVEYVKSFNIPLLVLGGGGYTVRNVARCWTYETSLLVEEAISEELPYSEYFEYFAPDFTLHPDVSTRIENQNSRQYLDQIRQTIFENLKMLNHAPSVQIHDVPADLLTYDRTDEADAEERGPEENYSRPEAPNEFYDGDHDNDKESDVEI
# Sequence (Q9Y618 389-480 partner limits assumed): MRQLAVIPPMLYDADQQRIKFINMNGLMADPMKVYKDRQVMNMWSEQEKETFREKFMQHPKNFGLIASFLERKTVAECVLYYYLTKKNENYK
# assay-comment: Recombinant HDAC µSPOT microarray binding assay
pEC50: −log10 of the molar value. Non-standard residues stand in square brackets, D forms with d. Residues, ends and D or L forms follow the SMILES beside them. *: point of attachment. Asu = N[C@@H](CCCCCC(=O)O)C(=O)O; NHOH = ON*

{"columns": ["compound", "pEC50"],
 "data": [
  ["CC(=O)N[C@@H](CC(C)C)C(=O)NCC(=O)N[C@@H](CCCCN)C(=O)NCC(=O)NCC(=O)N[C@@H](C)C(=O)N[C@@H](CCCCCC(=O)NO)C(=O)N[C@@H](CCCNC(=N)N)C(=O)N[C@@H](Cc1c[nH]cn1)C(=O)N[C@@H](CCCNC(=N)N)C(=O)N[C@@H](CCCCN)C(=O)N[C@H](C(=O)N[C@@H](CC(C)C)C(=O)N[C@@H](CCCNC(=N)N)C(=O)N[C@@H](CC(=O)O)C(=O)N[C@@H](CC(N)=O)C(=O)N[C@@H](Cc1c[nH]c2ccccc12)C(N)=O)C(C)C [16a] (Ac-LGKGGA[Asu](NHOH)RHRKVLRDNW-NH2)", 8.49]
]}

* * *

# target-system: HDAC1 (Homo sapiens, UniProt Q13547)
# Construct: HDAC1 (full length, C-terminal His tag, C-terminal FLAG tag, BPS Bioscience, cat. #: 50051); FLAG (C)
# Sequence (Q13547 whole entry): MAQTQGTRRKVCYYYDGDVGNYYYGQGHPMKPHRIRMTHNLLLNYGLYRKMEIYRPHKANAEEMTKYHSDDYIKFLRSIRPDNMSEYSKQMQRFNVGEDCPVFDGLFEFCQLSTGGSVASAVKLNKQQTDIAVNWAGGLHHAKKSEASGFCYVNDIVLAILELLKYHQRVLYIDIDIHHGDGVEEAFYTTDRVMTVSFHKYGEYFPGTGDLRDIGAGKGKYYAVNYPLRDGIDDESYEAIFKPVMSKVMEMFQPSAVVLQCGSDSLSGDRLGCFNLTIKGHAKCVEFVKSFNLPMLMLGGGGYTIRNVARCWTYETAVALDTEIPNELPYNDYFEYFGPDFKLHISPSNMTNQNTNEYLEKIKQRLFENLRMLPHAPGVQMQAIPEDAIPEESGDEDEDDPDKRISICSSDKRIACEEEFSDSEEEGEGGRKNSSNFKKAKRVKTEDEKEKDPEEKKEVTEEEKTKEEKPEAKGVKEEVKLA
# assay-comment: Recombinant HDAC µSPOT microarray binding assay
Non-standard residues stand in square brackets, D forms with d. Residues, ends and D or L forms follow the SMILES beside them. *: point of attachment. Asu = N[C@@H](CCCCCC(=O)O)C(=O)O; NHOH = ON*
quantity-name: EC50 (nM)

{"columns": ["compound", "unit-label", "censor-symbol", "experimental-value"],
 "data": [
  ["CC(=O)N[C@@H](C)C(=O)N1CCC[C@H]1C(=O)N[C@@H](C)C(=O)N1CCC[C@H]1C(=O)N[C@@H](CCCCN)C(=O)N[C@@H](CCCCCC(=O)NO)C(=O)NCC(=O)N[C@@H](CO)C(=O)N[C@@H](CCCCN)C(=O)N[C@@H](CCCCN)C(=O)N[C@@H](C)C(=O)N[C@H](C(=O)N[C@H](C(=O)N[C@@H](CCCCN)C(=O)N[C@@H](C)C(=O)N[C@@H](CCC(N)=O)C(=O)N[C@@H](Cc1c[nH]c2ccccc12)C(N)=O)[C@@H](C)O)C(C)C [10a] (Ac-APAPK[Asu](NHOH)GSKKAVTKAQW-NH2)", "nM", "=", 8.71],
  ["CC(=O)N[C@@H](C)C(=O)N[C@@H](CCCNC(=N)N)C(=O)N[C@@H](CCCCN)C(=O)N[C@@H](CO)C(=O)N[C@H](C(=O)NCC(=O)NCC(=O)N[C@@H](CCCCN)C(=O)N[C@@H](C)C(=O)N1CCC[C@H]1C(=O)N[C@@H](CCCNC(=N)N)C(=O)N[C@@H](CCCCCC(=O)NO)C(=O)N[C@@H](CCC(N)=O)C(=O)N[C@@H](CC(C)C)C(=O)N[C@@H](C)C(=O)N[C@H](C(=O)N[C@@H](Cc1c[nH]c2ccccc12)C(N)=O)[C@@H](C)O)[C@@H](C)O [13a] (Ac-ARKSTGGKAPR[Asu](NHOH)QLATW-NH2)", "nM", ">", 25.1]
]}
